Here, each record is paired with measured fold repression data.
# Subject Of Test: T1, ECF22_4450
# T1 chain: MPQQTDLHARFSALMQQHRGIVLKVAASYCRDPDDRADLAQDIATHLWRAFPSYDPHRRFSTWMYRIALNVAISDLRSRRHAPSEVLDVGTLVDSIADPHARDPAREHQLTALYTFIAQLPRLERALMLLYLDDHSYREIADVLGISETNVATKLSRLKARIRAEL
No unit in the answer, please; the number alone is enough.

>>> measurement("AS16_3622 (protein) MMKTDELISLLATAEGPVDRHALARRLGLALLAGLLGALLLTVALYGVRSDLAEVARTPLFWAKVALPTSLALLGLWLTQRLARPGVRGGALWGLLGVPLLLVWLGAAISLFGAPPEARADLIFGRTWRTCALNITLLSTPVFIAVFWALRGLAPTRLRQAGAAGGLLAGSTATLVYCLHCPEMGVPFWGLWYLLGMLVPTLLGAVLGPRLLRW")
4.51
>>> measurement("AS16_973 (protein) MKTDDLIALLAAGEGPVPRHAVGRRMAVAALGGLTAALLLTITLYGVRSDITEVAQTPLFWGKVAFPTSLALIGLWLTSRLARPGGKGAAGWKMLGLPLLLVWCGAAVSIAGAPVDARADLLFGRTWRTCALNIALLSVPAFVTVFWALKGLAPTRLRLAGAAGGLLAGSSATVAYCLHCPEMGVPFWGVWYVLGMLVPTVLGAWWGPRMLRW")
2.62
>>> measurement("AS14_1324 (protein) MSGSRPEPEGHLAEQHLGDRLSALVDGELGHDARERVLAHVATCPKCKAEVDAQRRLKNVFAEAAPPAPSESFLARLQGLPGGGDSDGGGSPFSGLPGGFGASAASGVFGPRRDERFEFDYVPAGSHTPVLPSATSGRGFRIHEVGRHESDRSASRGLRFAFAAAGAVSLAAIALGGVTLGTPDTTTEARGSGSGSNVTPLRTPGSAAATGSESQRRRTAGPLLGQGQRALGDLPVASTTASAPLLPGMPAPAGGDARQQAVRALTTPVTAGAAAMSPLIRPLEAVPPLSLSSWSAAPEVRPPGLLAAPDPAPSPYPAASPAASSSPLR")
8.4
>>> measurement("AS03_1244 (protein) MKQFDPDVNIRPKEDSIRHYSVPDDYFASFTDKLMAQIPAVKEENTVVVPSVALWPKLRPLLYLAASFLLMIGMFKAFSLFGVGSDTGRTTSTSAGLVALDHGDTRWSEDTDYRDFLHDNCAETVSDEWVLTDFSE")
2.49
>>> measurement("AS31_34 (protein) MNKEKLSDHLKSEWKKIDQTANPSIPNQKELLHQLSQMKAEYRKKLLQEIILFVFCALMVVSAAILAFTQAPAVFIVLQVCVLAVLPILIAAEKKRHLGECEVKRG")
3.59

Incoming: Supply measured fold repression of AS15_436 (protein) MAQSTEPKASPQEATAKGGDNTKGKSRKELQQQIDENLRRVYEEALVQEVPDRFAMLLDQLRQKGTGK in your reply.
Outgoing: 4.63

Incoming: Input AS04_1609 (protein) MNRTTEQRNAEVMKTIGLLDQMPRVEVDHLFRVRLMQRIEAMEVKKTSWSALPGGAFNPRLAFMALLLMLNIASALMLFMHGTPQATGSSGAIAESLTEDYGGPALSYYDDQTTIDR , output reported fold repression.
Outgoing: 9.53

Incoming: Return the recorded fold repression value; entry: AS33_375 (protein) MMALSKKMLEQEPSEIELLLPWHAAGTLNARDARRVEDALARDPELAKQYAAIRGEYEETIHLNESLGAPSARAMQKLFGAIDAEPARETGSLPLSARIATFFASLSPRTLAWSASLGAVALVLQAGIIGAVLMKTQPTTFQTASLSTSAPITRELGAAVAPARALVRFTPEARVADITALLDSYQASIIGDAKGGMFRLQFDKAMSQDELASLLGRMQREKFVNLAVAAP
Outgoing: 31

Incoming: Return fold repression for the following binder: AS22_1147 (protein) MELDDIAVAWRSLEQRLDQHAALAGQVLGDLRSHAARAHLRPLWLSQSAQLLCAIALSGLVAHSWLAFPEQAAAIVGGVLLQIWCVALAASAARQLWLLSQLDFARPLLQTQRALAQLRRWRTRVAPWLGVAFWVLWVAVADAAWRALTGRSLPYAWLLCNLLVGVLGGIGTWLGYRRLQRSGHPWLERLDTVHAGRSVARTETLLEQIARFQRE
Outgoing: 35.7

Incoming: Entry AS22_4450 (protein) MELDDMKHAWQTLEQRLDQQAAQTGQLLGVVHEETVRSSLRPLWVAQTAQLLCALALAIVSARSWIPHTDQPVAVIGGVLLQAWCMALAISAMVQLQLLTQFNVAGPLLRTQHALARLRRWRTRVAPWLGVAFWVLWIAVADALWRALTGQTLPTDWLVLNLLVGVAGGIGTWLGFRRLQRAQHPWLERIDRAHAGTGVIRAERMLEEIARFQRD needs its fold repression filled in; supply it.
Outgoing: 12.7

Incoming: Please look at this binder and report its fold repression: AS33_423 (protein) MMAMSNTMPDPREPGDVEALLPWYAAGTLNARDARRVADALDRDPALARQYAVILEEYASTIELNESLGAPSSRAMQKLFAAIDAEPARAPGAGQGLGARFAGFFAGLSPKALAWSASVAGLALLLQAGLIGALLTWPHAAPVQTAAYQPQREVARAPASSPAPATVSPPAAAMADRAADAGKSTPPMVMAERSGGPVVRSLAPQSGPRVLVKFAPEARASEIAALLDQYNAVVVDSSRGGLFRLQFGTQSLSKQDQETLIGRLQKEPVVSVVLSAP
Outgoing: 23.1

Entry source: paper PMC3817407
